B1: Caulobacter ParB omega fusion; a variant is named by its letters at X, in order, B8GW30 (parent)
chain: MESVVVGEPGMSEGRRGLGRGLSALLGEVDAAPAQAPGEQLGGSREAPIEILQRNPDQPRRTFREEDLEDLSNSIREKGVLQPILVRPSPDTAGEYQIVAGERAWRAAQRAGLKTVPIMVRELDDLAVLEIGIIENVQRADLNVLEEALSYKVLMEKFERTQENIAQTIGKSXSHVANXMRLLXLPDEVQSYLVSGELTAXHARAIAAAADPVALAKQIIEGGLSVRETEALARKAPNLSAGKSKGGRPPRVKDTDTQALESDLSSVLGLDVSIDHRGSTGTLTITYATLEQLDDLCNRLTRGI

Variants of: B1
Experiment: one-hybrid fitness for binding NBS DNA (the Noc-binding site; scaled: cognate 1, non-cognate 0); higher = stronger binding
Conditions: with NBS DNA site
Whole data set: some 81,000 sequences, median “one-hybrid fitness for binding NBS DNA” near -0.1, cut for the highest 2% near 0.36. The entries come from a sample that favours the highest values as a whole.
Readout Name: one-hybrid fitness for binding NBS DNA

{"Mutant Designation": "PSHR", "Result Modifier": "≤", "Test Value": 0.2}
{"Mutant Designation": "RCCA", "Result Modifier": "=", "Test Value": 0.268}
{"Mutant Designation": "QMKC", "Result Modifier": "=", "Test Value": 0.383}
{"Mutant Designation": "TALF", "Result Modifier": "≤", "Test Value": 0.2}
{"Mutant Designation": "KGST", "Result Modifier": "≤", "Test Value": 0.2}
